target: T1, human dimeric EGFR (EGFR.mFc) (human); test: SPR 37C, mAb captured by anti-human Fc, EGFR.mFc analyte
T1 construct: Soluble dimeric EGFR construct
So basically, if t1/2 comes in under 10 h it's fulfilled, and if it's 10 h or more it's not fulfilled.

Before answering, review these 3 worked examples.
binder	label
H1H169P (antibody, human IgG1, V domains shown, Human IgG1 Fc (H1H)) VH: EVQLVESGGGLVQPGGSLRLSCAASRFTFSTYWMSWVRQAPGKGLEWVAKIKQDGSEKYYLDSVKDRFTISRDNAKNSLYLQMNSLRAEDTAVYYCASSITWYDYYYGMDVWGHGTTVTVSS VL: EIVLTQSPDFQSVTPKEKVTITCRASQSIGSNLHWYQQKPDQSPNLLIKFASQSFSGVPSRFSGSGSGTDFTLTINSLEAEDAATYYCHQTNFLPHTFGGGTKVEIK	not fulfilled
H1H143P (antibody, human IgG1, V domains shown, Human IgG1 Fc (H1H)) VH: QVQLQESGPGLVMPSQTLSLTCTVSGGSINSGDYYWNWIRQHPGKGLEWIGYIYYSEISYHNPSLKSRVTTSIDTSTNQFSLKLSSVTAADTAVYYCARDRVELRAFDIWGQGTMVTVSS VL: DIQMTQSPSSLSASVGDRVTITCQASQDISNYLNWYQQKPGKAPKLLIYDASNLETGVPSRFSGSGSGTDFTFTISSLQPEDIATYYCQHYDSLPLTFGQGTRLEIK	not fulfilled
H1H116N (antibody, human IgG1, V domains shown, Tested in human IgG1 Fc format (H1H); also called H1M116N) VH: QVQLQESGPGLVKPSQTLSLTCTVSGGSVSSGDYYWSWIRQHPGKGLDWIGHIYYSGSTYYNPSLKSRVTISLDTSKNQFSLKLNSVTAADTAVYYCARTAITGTMDYWGQGTLVTVSS VL: EIVMTQSPATLSVSAGERATLSCRASQSVSSNLAWFQQKPGQAPRLLIYDASTRATGIPARFSGSGSGTEFTLIISSLQSEDFALYYCQQYNSWWTFGQGTKVEIK	fulfilled

Continue with the binder presented below.
Query block: Hello, is t1/2 of the following binder strictly smaller than 10 h? H1H086N (antibody, human IgG1, V domains shown, Tested in human IgG1 Fc format (H1H); also called H1M086N) VH: EVQLVESGGGLVQPGRSLRLSCAASGFTFDDYAMHWVRQAPGKGLEWVSGINWNSDKIAYADSVKGRFTISRDNAENSLFLQMNSLRPEDTALYYCVKRGDFWTDYYDYWGQGTLVTVSS VL: DIVMTQSPLSLPVTPGEPASISCRSSQSLLHSNGYNYLDWYLQKPGQSPHLLIYLVSTRASGVPDRFSGSGSGTDFTLKISRVEAEDVGVYYCMQALQTPWTFGQGTKVEIK
Result block: not fulfilled
